# SUBJECT_OF_TEST: UniProt:Q869C3
# Sequence (Q869C3 whole entry): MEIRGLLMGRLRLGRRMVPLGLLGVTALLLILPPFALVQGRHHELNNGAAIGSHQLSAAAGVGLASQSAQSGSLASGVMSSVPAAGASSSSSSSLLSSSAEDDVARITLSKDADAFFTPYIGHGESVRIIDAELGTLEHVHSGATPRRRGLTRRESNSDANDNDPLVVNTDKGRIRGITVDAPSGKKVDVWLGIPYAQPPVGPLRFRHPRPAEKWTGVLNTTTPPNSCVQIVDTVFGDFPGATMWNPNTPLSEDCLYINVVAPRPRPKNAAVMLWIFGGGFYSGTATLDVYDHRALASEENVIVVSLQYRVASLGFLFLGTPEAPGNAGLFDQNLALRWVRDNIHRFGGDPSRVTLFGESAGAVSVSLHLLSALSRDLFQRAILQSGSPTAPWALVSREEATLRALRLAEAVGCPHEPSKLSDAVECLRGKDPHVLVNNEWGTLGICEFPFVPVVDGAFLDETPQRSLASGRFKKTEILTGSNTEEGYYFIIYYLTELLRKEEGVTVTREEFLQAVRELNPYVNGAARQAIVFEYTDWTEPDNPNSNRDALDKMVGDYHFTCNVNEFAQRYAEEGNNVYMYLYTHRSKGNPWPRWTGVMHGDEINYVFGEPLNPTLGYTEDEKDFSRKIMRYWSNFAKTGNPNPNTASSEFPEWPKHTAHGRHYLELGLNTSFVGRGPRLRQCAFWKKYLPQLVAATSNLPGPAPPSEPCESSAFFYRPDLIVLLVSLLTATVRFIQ
# PROCEDURE_SUMMARY: Inhibition of recombinant full length Anopheles gambiae AChE1 expressed in baculovirus-infected Sf9 insect cells using acetylthiocholine iodide as substrate measured over 60 secs by Ellman's method
The label is True for IC50 below 30 µM and False for IC50 equal to or exceeding 30 µM.

# input Consider `COc1ccccc1NC(=S)NCCN(C)C` . Does its IC50 lie strictly below 30 µM?
# output True

# input Consider `CC1CCN(CCNC(=S)Nc2cccc(Cl)c2)CC1` . Does its IC50 lie strictly below 30 µM?
# output False

# input Consider `COc1ccccc1N=C(S)NCCN1CCOCC1` . Does its IC50 lie strictly below 30 µM?
# output False

# input Consider `S=C(NCCN1CCCCC1)Nc1cccc(Cl)c1` . Does its IC50 lie strictly below 30 µM?
# output False

# input Consider `CN(C)CCN=C(S)Nc1cccc(Cl)c1` . Does its IC50 lie strictly below 30 µM?
# output False

# input Consider `CN(C)CCNC(=S)Nc1ccccc1Cl` . Does its IC50 lie strictly below 30 µM?
# output True

# input Consider `NS(=O)(=O)c1ccc(NC(=S)NCCN2CCCCC2)cc1` . Does its IC50 lie strictly below 30 µM?
# output True

# input Consider `COc1cc(NC(=S)NCCN2CCOCC2)ccc1Cl` . Does its IC50 lie strictly below 30 µM?
# output False

# input Consider `COc1ccc(NC(=S)NCCN2CCOCC2)cc1Cl` . Does its IC50 lie strictly below 30 µM?
# output True

# input Consider `COc1ccccc1NC(=S)NCCN1CCCCC1` . Does its IC50 lie strictly below 30 µM?
# output True

# input Consider `COc1ccc(NC(S)=NCCN2CCC(C)CC2)cc1` . Does its IC50 lie strictly below 30 µM?
# output False

# input Consider `COc1ccc(NC(S)=NCCN2CCOCC2)cc1` . Does its IC50 lie strictly below 30 µM?
# output True

# input Consider `COc1ccc(NC(=S)NCCN(C)C)cc1` . Does its IC50 lie strictly below 30 µM?
# output False

# input Consider `FC(F)(F)c1ccc(NC(=S)NCCN2CCCCC2)cc1` . Does its IC50 lie strictly below 30 µM?
# output False
